Exercise: state measured λmax Emission for each of the compounds provided.
RUN_DESCRIPTION: Absorbance and fluorescence emission spectra (SpectraMax M2)
Type: physicochemical
CONDITIONS_USED: BDCAC library, Table 3
// units = nm; emit number, no label

Task: Quick check: λmax Emission of `CC(=O)Nc1ccc(C2=C3C=CC(N4CCCCC4)=[N+]3[B-](F)(F)n3c2ccc3-n2cc(C3CCCC3)nn2)cc1` ?
Output: 588

Task: Proceed to `CC(=O)Nc1ccc(C2=C3C=CC(N4CCCCC4)=[N+]3[B-](F)(F)n3c2ccc3-n2cc(-c3cccc(F)c3)nn2)cc1`
Output: 569

Task: Proceed to `CC(=O)Nc1ccc(C2=C3C=CC(N4CCCCC4)=[N+]3[B-](F)(F)n3c2ccc3-n2cc(-c3ccc(F)cc3F)nn2)cc1`
Output: 567

Task: Proceed to `CC(=O)Nc1ccc(C2=C3C=CC(N4CCCCC4)=[N+]3[B-](F)(F)n3c2ccc3-n2cc(CCC(C)C)nn2)cc1`
Output: 585

Task: Proceed to `CC(=O)Nc1ccc(C2=C3C=CC(N4CCCCC4)=[N+]3[B-](F)(F)n3c2ccc3-n2cc(-c3ccc(F)c(F)c3)nn2)cc1`
Output: 586

Task: Proceed to `CC(=O)Nc1ccc(C2=C3C=CC(N4CCCCC4)=[N+]3[B-](F)(F)n3c2ccc3-n2cc(-c3cc(C(F)(F)F)cc(C(F)(F)F)c3)nn2)cc1`
Output: 549

Task: Proceed to `CC(=O)Nc1ccc(C2=C3C=CC(N4CCCCC4)=[N+]3[B-](F)(F)n3c2ccc3-n2cc(CC3CCCCC3)nn2)cc1`
Output: 585

Task: Proceed to `CC(=O)Nc1ccc(C2=C3C=CC(N4CCCCC4)=[N+]3[B-](F)(F)n3c2ccc3-n2cc(-c3ccc(C(C)(C)C)cc3)nn2)cc1`
Output: 582

Task: Proceed to `CC(=O)Nc1ccc(C2=C3C=CC(N4CCCCC4)=[N+]3[B-](F)(F)n3c2ccc3-n2cc(-c3cccc(C)c3)nn2)cc1`
Output: 551

Task: Proceed to `COc1ccc2cc(-c3cn(-c4ccc5n4[B-](F)(F)[N+]4=C(N6CCCCC6)C=CC4=C5c4ccc(NC(C)=O)cc4)nn3)ccc2c1`
Output: 585

Task: Proceed to `CC(=O)Nc1ccc(C2=C3C=CC(N4CCCCC4)=[N+]3[B-](F)(F)n3c2ccc3-n2cc(-c3ccccc3)nn2)cc1`
Output: 579

Task: Proceed to `CCCCc1ccc(-c2cn(-c3ccc4n3[B-](F)(F)[N+]3=C(N5CCCCC5)C=CC3=C4c3ccc(NC(C)=O)cc3)nn2)cc1`
Output: 558

Task: Proceed to `CC(=O)Nc1ccc(C2=C3C=CC(N4CCCCC4)=[N+]3[B-](F)(F)n3c2ccc3-n2cc(CC3CCCC3)nn2)cc1`
Output: 585

====

Exercise: state measured λmax Abs. (nm) for each of the molecules provided.
RUN_DESCRIPTION: Absorbance and fluorescence emission spectra (SpectraMax M2)
Format: physicochemical
CONDITIONS_USED: MKAC compound library; absorbance maximum
The number alone won't do; follow it with the unit.

Task: Quick check: λmax Abs. (nm) of CC(=O)Nc1ccc(C2=C3C=CC(N4CC(C)OC(C)C4)=[N+]3[B-](F)(F)n3c2ccc3-n2cc(C3CC3)nn2)cc1 (stereo not drawn) [MKAC20-4] ?
Output: 466 nm

Task: Proceed to CCCCCC(O)c1cn(-c2ccc3n2[B-](F)(F)[N+]2=C(N(C)Cc4ccccc4)C=CC2=C3c2ccc(NC(C)=O)cc2)nn1 (racemic) [MKAC195-69]
Output: 467 nm

Task: Proceed to CCCc1cn(-c2ccc3n2[B-](F)(F)[N+]2=C(N(C)Cc4ccccc4)C=CC2=C3c2ccc(NC(C)=O)cc2)nn1 [MKAC195-48]
Output: 467 nm

Task: Proceed to CCOc1ccccc1CNC1=[N+]2C(=C(c3ccc(NC(C)=O)cc3)c3ccc(-n4cc(CN(C)Cc5ccccc5)nn4)n3[B-]2(F)F)C=C1 [MKAC103-18]
Output: 465 nm

Task: Proceed to CCOc1ccccc1CNC1=[N+]2C(=C(c3ccc(NC(C)=O)cc3)c3ccc(-n4cc(C5CCCC5)nn4)n3[B-]2(F)F)C=C1 [MKAC103-5]
Output: 465 nm

Task: Proceed to CCOc1ccccc1CNC1=[N+]2C(=C(c3ccc(NC(C)=O)cc3)c3ccc(-n4cc(C5CC5)nn4)n3[B-]2(F)F)C=C1 [MKAC103-4]
Output: 464 nm

Reference for the values: patent US9513294B2
